Sourced from the supplement of paper PMC10567573

assay: protein stability index of a GFP-peptide fusion (GPS, HEK-293T) (PSI 1-6); higher = more stable; settings: treatment: MLN4924 1 uM, 8 h; c terminus: a fixed tail appended;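 note: 24-mer peptide tiles fused after GFP, lentivirally expressed, FACS-sorted into six equal bins by GFP/DsRed ratio, decoded by Illumina sequencing, PSI is the read-weighted mean bin number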
Parameter class (string): assigned from measured protein stability index. Ranges: lower bin = under 3, middle bin = from 3 up to 4, upper bin = 4 and over

Illustrative cases are given below, each with its answer.
DGTGASQEPPTTDSQEAQSPGHSS [TOR1AIP2] | upper bin
GKKVAVVLMDTQGAFDSQSTVKDC [ATL3] | middle bin

Query string: Into which category would you place SFPEPEAAQPMTKKRKVDGLSTEA [PRAME] ?
Result string: upper bin

Query string: Into which category would you place LIIQAGIKEVIFMSDKYHDSDEAT [DCTD] ?
Result string: lower bin

Query string: Into which category would you place GYIDPEELAEIFRASGEHVTDEEI [TNNC2] ?
Result string: upper bin

Query string: Into which category would you place VLRREISELRTKVQEQQKQLQDQD [FBXO28] ?
Result string: upper bin

Query string: Into which category would you place YSDNPCSCSQSHCCSRYLCMGAMS [SPRY1] ?
Result string: lower bin

Query string: Into which category would you place EGSVACLWWDPIQRLLFSGASDNS [WDFY1] ?
Result string: lower bin

Query string: Into which category would you place TQIIGEQNARLAELERKLREVMES [FBXO28] ?
Result string: middle bin

Query string: Into which category would you place DLLTFVQNLCKGLSQPTTNLVAGC [NEUROD6] ?
Result string: lower bin

Query string: Into which category would you place DGKGKINKEYIKRLLMSQADKMTA [MYL5] ?
Result string: middle bin
